# subject.of.test: MBP-FoxP3dN (Mus musculus, UniProt Q99JB6 188-423)
# Sequence: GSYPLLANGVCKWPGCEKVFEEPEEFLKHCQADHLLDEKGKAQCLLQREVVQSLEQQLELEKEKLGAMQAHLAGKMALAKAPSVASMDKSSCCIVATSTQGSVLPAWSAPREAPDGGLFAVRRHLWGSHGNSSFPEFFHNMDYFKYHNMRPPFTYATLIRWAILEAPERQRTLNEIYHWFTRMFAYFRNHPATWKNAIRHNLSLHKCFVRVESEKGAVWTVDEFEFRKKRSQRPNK
# assay.notes: PD-seq (MBP pull-down with sequencing); 20 mM Tris-HCl pH 7.5, 100 mM NaCl, 1.5 mM MgCl2, 0.4 uM protein, 0.1 uM dsDNA library, 30 min, room temperature, amylose pull-down; high values mean tight binding
# experimental.context: protein: recombinant; tags: His6-MBP; chain copies: 2; dsDNA, one strand shown
Over roughly 16,000 sequences, “rpm ratio (pull-down/input)” has its median near 0.5; the highest 2% begin near 5.5. What follows is part of a selection rich in the highest values, with near analogues and random picks from the rest.
reported.endpoint: binding signal

Recorded binding signal, per entry:
{"sequence.content": "GATGATTGTTCTCCCAGCTGATGAATTGCATTGTTCGAGTAAACAAATTTTCCTAATCTTTCTGTTCAAGCGCCATCTAC", "binding signal": "4.05 RPM ratio (pull-down/input)"}
{"sequence.content": "GATGATTGTTCTCCCAGCTGATGAATTCTTTGTATCGAGTAAACAAATTTTCCTAATCTTTCTGTTCAAGCGCCATCTAC", "binding signal": "0.57 RPM ratio (pull-down/input)"}
{"sequence.content": "GATGATTGTTCTCCCAGCTGATGAATTGCGCATCTCGAGTAAACAAATTTTCCTAATCTTTCTGTTCAAGCGCCATCTAC", "binding signal": "8.03 RPM ratio (pull-down/input)"}
{"sequence.content": "GATGATTGTTCTCCCAGCTGATGAATTATGTTTTTCGAGTAAACAAATTTTCCTAATCTTTCTGTTCAAGCGCCATCTAC", "binding signal": "6.33 RPM ratio (pull-down/input)"}
{"sequence.content": "GATGATTGTTCTCCCAGCTGATGAATTTATTGTGTCGAGTAAACAAATTTTCCTAATCTTTCTGTTCAAGCGCCATCTAC", "binding signal": "6.95 RPM ratio (pull-down/input)"}
{"sequence.content": "GATGATTGTTCTCCCAGCTGATGAATTATGTTGATCGAGTAAACAAATTTTCCTAATCTTTCTGTTCAAGCGCCATCTAC", "binding signal": "7.26 RPM ratio (pull-down/input)"}
{"sequence.content": "GATGATTGTTCTCCCAGCTGATGAATTGCTCACATCGAGTAAACAAATTTTCCTAATCTTTCTGTTCAAGCGCCATCTAC", "binding signal": "0.686 RPM ratio (pull-down/input)"}
{"sequence.content": "GATGATTGTTCTCCCAGCTGATGAATTGCGCATTTCGAGTAAACAAATTTTCCTAATCTTTCTGTTCAAGCGCCATCTAC", "binding signal": "8.05 RPM ratio (pull-down/input)"}
{"sequence.content": "GATGATTGTTCTCCCAGCTGATGAATTATGATGATCGAGTAAACAAATTTTCCTAATCTTTCTGTTCAAGCGCCATCTAC", "binding signal": "1.63 RPM ratio (pull-down/input)"}
{"sequence.content": "GATGATTGTTCTCCCAGCTGATGAATTGTGTTCTTCGAGTAAACAAATTTTCCTAATCTTTCTGTTCAAGCGCCATCTAC", "binding signal": "2.39 RPM ratio (pull-down/input)"}

Go through the items and report each one's binding signal.
1. GATGATTGTTCTCCCAGCTGATGAATTGCGCGCATCGAGTAAACAAATTTTCCTAATCTTTCTGTTCAAGCGCCATCTAC
2. GATGATTGTTCTCCCAGCTGATGAATTTCAAGTTTCGAGTAAACAAATTTTCCTAATCTTTCTGTTCAAGCGCCATCTAC
3. GATGATTGTTCTCCCAGCTGATGAATTATCTTGGTCGAGTAAACAAATTTTCCTAATCTTTCTGTTCAAGCGCCATCTAC
4. GATGATTGTTCTCCCAGCTGATGAATTTGTGCGCTCGAGTAAACAAATTTTCCTAATCTTTCTGTTCAAGCGCCATCTAC
5. GATGATTGTTCTCCCAGCTGATGAATTTGTGTAATCGAGTAAACAAATTTTCCTAATCTTTCTGTTCAAGCGCCATCTAC

Ans:
1. 2.39 RPM ratio (pull-down/input)
2. 0.283 RPM ratio (pull-down/input)
3. 0.323 RPM ratio (pull-down/input)
4. 1.87 RPM ratio (pull-down/input)
5. 4.48 RPM ratio (pull-down/input)
